- subject of test: Sulfotransferase 1E1 (Homo sapiens)
- test method notes: SULT1E1 thermal stabilisation by ligands, biophysical, StarGazer light scattering, human (AID 747)
- measurement parameters: purified SULT1E1, StarGazer light scattering thermal shift; at 1 mM; stronger effect = higher value
Short version: Tagg shift at least 1 °C is MET, less is NOT MET.

Would you say Oc1cccc2ccccc12 shows Tagg shift at minimum 1 °C?
NOT MET

Would you say COc1cc(C=O)ccc1O shows Tagg shift at minimum 1 °C?
NOT MET

Would you say C[C@H]1CCC[C@H](O)CCC/C=C/c2cc(O)cc(O)c2C(=O)O1 shows Tagg shift at minimum 1 °C?
MET

Would you say Cc1cccc(Nc2ccccc2C(=O)O)c1C shows Tagg shift at minimum 1 °C?
MET

Would you say Oc1ccc(/C=C/c2cc(O)cc(O)c2)cc1 shows Tagg shift at minimum 1 °C?
MET

Would you say CCCc1ccccc1O shows Tagg shift at minimum 1 °C?
NOT MET

Would you say NCCc1ccc(O)c(O)c1 shows Tagg shift at minimum 1 °C?
NOT MET

Would you say NC[C@H](O)c1ccc(O)c(O)c1 shows Tagg shift at minimum 1 °C?
NOT MET

Would you say C[C@]12CC[C@@H]3c4ccc(O)cc4CC[C@H]3[C@@H]1CCC2=O shows Tagg shift at minimum 1 °C?
MET

Would you say Nc1ccc(O)cc1 shows Tagg shift at minimum 1 °C?
NOT MET

Would you say CNCC(O)c1ccc(O)c(O)c1 (stereo not drawn) shows Tagg shift at minimum 1 °C?
NOT MET

Would you say Cc1ncc(COP(=O)(O)O)c(C=O)c1O shows Tagg shift at minimum 1 °C?
MET

Would you say CCc1ccccc1O shows Tagg shift at minimum 1 °C?
NOT MET

----------
- subject of test: Sulfotransferase 1E1 (Homo sapiens)
- test method notes: SULT1E1 thermal stabilisation by ligands, biophysical, StarGazer light scattering, human (AID 747)
- measurement parameters: purified SULT1E1, StarGazer light scattering thermal shift; at 1 mM; stronger effect = higher value
recorded endpoint: Tagg shift (°C)
Give your result in °C as a bare value.

Tagg shift lookup needed for Oc1c(Cl)c(Cl)c(Cl)c(Cl)c1Cl , thanks.
0

Tagg shift lookup needed for Oc1ccc2ccccc2c1 , thanks.
0

Tagg shift lookup needed for C[C@]12CC[C@H](OS(=O)(=O)O)CC1=CC[C@@H]1[C@@H]2CC[C@]2(C)C(=O)CC[C@@H]12 , thanks.
1.1

Tagg shift lookup needed for O=c1c(O)c(-c2ccc(O)c(O)c2)oc2cc(O)cc(O)c12 , thanks.
1.95

Tagg shift lookup needed for C[C@]12CC[C@@H]3c4cc(O)c(O)cc4CC[C@H]3[C@@H]1CC[C@@H]2O , thanks.
1.55

Tagg shift lookup needed for CCC(C)c1ccccc1O (stereo unspecified) , thanks.
0
